- systemUnderTest: IRE1α (Homo sapiens, UniProt O75460)
- Sequence (O75460 547-977): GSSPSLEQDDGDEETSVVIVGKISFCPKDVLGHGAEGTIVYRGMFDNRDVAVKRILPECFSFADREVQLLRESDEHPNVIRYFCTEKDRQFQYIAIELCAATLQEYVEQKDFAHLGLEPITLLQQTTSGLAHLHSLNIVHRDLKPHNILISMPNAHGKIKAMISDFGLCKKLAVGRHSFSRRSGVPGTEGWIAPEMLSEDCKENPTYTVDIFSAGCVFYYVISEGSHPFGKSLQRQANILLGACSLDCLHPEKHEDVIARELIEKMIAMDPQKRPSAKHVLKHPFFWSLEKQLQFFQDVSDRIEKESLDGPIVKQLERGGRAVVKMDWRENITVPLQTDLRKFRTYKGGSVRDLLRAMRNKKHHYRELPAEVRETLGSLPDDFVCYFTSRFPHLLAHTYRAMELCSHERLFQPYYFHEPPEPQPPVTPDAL
pKd: −log10 of the molar value.

{"columns": ["compound", "pKd"],
 "data": [
  ["CC(C)(C)c1nc(-c2ccc(NC(=O)Nc3cccc(C(F)(F)F)c3)c3ccccc23)c2c(N)nccn12 [KIRA6]", 6.55]
]}

Reference source: paper PMC8002512
